Data origin: ChEMBL document CHEMBL5058577

# System: U2OS
# assay comment: Multiplex assay against U2OS
# Format: toxicity, cell-based
# condition set: human, 48 h, 1 µM, compound concentration 1 uM, replicate 1
experimental readout: Population Fragmented Nuclei (%)

NCCc1cn(S(=O)(=O)c2c(Cl)nc3sccn23)c2ccccc12.O=C(O)C(=O)O :: 21%
CCCCC1=NC2(CCCC2)C(=O)N1Cc1ccc(-c2ccccc2-c2nnn[nH]2)cc1 [IRBESARTAN] :: 18%

List Population Fragmented Nuclei (%) for every entry below, keeping the order given.
1. CN[C@@H](C)C(=O)N[C@H](C(=O)N1CCC[C@H]1C(=O)Nc1snnc1-c1ccccc1)C1CCCCC1 [GDC-0152]
2. Cc1cccc(NC(=O)CN2CCC(c3ccccn3)CC2)c1.Cl.Cl
3. CN(C)C(=O)Cn1cc(-c2ccc(-c3cncc4ccccc34)cc2)cn1
4. Cc1sc2c(c1C)C(c1ccc(Cl)cc1)=N[C@@H](CC(=O)NCCCCCCCCNC(=O)COc1cccc3c1C(=O)N(C1CCC(=O)NC1=O)C3=O)c1nnc(C)n1-2 (some centres undefined)
5. Cl.NCCc1ccc(O)c(O)c1 [DOPAMINE HYDROCHLORIDE]
6. O=C(CCCc1ccccc1)Nc1nc2ccccc2c(=O)s1
7. CCc1cc2cc(NS(=O)(=O)c3ccc(C#N)cc3)ccc2n(CC)c1=O

["35%", "18%", "18%", "35%", "17%", "13%", "21%"]

###

# Tested on: Fibroblast
# assay comment: Multiplex assay against human fibroblast
# Type: toxicity, cell-based
# condition set: 12 h, 1 µM, compound concentration 1 uM, replicate 2
experimental readout: Total Cell Count
One number for each entry.

Check out these entries, answers already filled in.
COc1ccccc1N1CCN(C[C@@H](C(=O)NC(C)(C)C)c2ccccc2)CC1.Cl.Cl :: 155
CCCOc1ccc2[nH]cc(C3=CCNCC3)c2n1.Cl :: 137
Cl.N=C(N)NC(=O)Cc1c(Cl)cccc1Cl [GUANFACINE HYDROCHLORIDE] :: 149
CCCCC1=NC2(CCCC2)C(=O)N1Cc1ccc(-c2ccccc2-c2nnn[nH]2)cc1 :: 187
C[C@H](N)COC(=O)[C@@H](CCCCN)NC(=O)Cc1c(-c2ccc3ccccc3c2)[nH]c2c1ccc1ccccc12 :: 170
Cc1sc2c(c1C)C(c1ccc(Cl)cc1)=N[C@@H](CC(=O)NCCCCCCCCNC(=O)COc1cccc3c1C(=O)N(C1CCC(=O)NC1=O)C3=O)c1nnc(C)n1-2 (stereo partly drawn) :: 94

List Total Cell Count for every entry below, keeping the order given.
1. Cc1noc(-c2ccc(-c3ccc(CC(=O)O)cc3)cc2)c1NC(=O)O[C@H](C)c1ccccc1Cl
2. CCCCCC(O)/C=C/[C@H]1C(=O)CC(O)C1C/C=C\CCCC(=O)O (stereo partly drawn)
3. NCCc1cn(S(=O)(=O)c2c(Cl)nc3sccn23)c2ccccc12.O=C(O)C(=O)O
4. O=C1[C@H](Cc2ccc(O)cc2)N2C(=O)CCN(C(=O)NCc3ccccc3)[C@H]2CN1Cc1cccc2ccccc12
5. Cc1cnc(-c2cc(N3CCN(C(=O)CCS(C)(=O)=O)CC3)ncc2Cl)c(C)c1
6. CCc1cc2cc(NS(=O)(=O)c3ccc(C#N)cc3)ccc2n(CC)c1=O
7. O=C(CCCc1ccccc1)Nc1nc2ccccc2c(=O)s1
8. CC[C@@H](C)Nc1nc(C)nc2c(-c3ccc(OC)nc3C)c(C)nn12

[140, 169, 170, 152, 85, 173, 135, 103]

List Total Cell Count for every entry below, keeping the order given.
1. Cc1onc(-c2ccccc2Cl)c1C(=O)N(C)c1ccc(Cl)cc1
2. CC(=O)Nc1cccc2c1c(Sc1ccc(Cl)cc1)c(C)n2CC(=O)O

1: 161; 2: 118

List Total Cell Count for every entry below, keeping the order given.
1. COC[C@@H](c1ccc(C(F)(F)F)cc1)N1CCN(C2(C)CCN(C(=O)c3c(C)ncnc3C)CC2)C[C@@H]1C.O=C(O)/C=C\C(=O)O [VICRIVIROC MALEATE]
2. CN[C@@H](C)C(=O)N[C@H](C(=O)N1CCC[C@H]1C(=O)Nc1snnc1-c1ccccc1)C1CCCCC1

1. 190
2. 121

###

# System: Fibroblast
# assay comment: Multiplex assay against human fibroblast
# Format: toxicity, cell-based
# condition set: 24 h, 1 µM, compound concentration 1 uM, replicate 2
Please use 1 for Population Fragmented Nuclei (%) under 30% and 0 for everything else, ties included.

Below are worked cases with known answers.
N#Cc1cc(F)cc(-c2nc(-c3ccc(F)cn3)no2)c1 :: 0
CCCOc1ccc2[nH]cc(C3=CCNCC3)c2n1.Cl :: 1
Cl.N=C(N)NC(=O)Cc1c(Cl)cccc1Cl [GUANFACINE HYDROCHLORIDE] :: 1

Given the entry NCCc1cn(S(=O)(=O)c2c(Cl)nc3sccn23)c2ccccc12.O=C(O)C(=O)O , would its reported Population Fragmented Nuclei (%) be below 30%? 0

Given the entry O=C(CCCc1ccccc1)Nc1nc2ccccc2c(=O)s1 , would its reported Population Fragmented Nuclei (%) be below 30%? 1

Given the entry Cl.NCCc1ccc(O)c(O)c1 [DOPAMINE HYDROCHLORIDE] , would its reported Population Fragmented Nuclei (%) be below 30%? 0

###

I'd appreciate it if you could supply Population Healthy Nuclei (%) values for the items below.
# System: HEK-293T
# assay comment: Multiplex assay against HEK293T
# Format: toxicity, cell-based
# condition set: human, 12 h, 10 µM, compound concentration 10 uM, replicate 2
One number for each entry, in %.

List Population Healthy Nuclei (%) for every entry below, keeping the order given.
1. Cc1sc2c(c1C)C(c1ccc(Cl)cc1)=N[C@@H](CC(=O)NCCCCCCCCNC(=O)COc1cccc3c1C(=O)N(C1CCC(=O)NC1=O)C3=O)c1nnc(C)n1-2 (some centres not stated)
2. Cc1noc(-c2ccc(-c3ccc(CC(=O)O)cc3)cc2)c1NC(=O)O[C@H](C)c1ccccc1Cl

1. 66
2. 72

List Population Healthy Nuclei (%) for every entry below, keeping the order given.
1. CN(C)C(=O)Cn1cc(-c2ccc(-c3cncc4ccccc34)cc2)cn1
2. Cl.NCCc1ccc(O)c(O)c1 [DOPAMINE HYDROCHLORIDE]
3. CC(/C=C1\SC(=S)N(CCCC(=O)Nc2ccc(C(=O)O)c(O)c2)C1=O)=C\c1ccccc1

1: 76; 2: 83; 3: 79

###

# System: U2OS
# assay comment: Multiplex assay against U2OS
# Format: toxicity, cell-based
# condition set: human, 12 h, 10 µM, compound concentration 10 uM, replicate 1
I'd appreciate it if you could supply Population Apoptotic (%) values for the items below.
One number for each entry, in %.

Check out these entries, answers already filled in.
N#Cc1cc(F)cc(-c2nc(-c3ccc(F)cn3)no2)c1 :: 76
CC(C)COc1ccc(CNC(=O)N(Cc2ccc(F)cc2)C2CCN(C)CC2)cc1 :: 67
Cc1cccc(NC(=O)CN2CCC(c3ccccn3)CC2)c1.Cl.Cl :: 72
CC(C)(C)c1cc(NC(=O)Nc2ccc(-c3cn4c(n3)sc3cc(OCCN5CCOCC5)ccc34)cc2)no1 :: 58

The measured Population Apoptotic (%) associated with Cl.NCCc1ccc(O)c(O)c1 [DOPAMINE HYDROCHLORIDE] reads 80

###

I'd appreciate it if you could supply Population Mitotic Cells (%) values for the items below.
# System: HEK-293T
# assay comment: Multiplex assay against HEK293T
# Type: toxicity, cell-based
# condition set: human, 24 h, 1 µM, compound concentration 1 uM, replicate 2
Give bare numbers, in %.

Check out these entries, answers already filled in.
N#Cc1cc(F)cc(-c2nc(-c3ccc(F)cn3)no2)c1 :: 51
CN[C@@H](C)C(=O)N[C@H](C(=O)N1CCC[C@H]1C(=O)Nc1snnc1-c1ccccc1)C1CCCCC1 :: 61
CCc1cc2cc(NS(=O)(=O)c3ccc(C#N)cc3)ccc2n(CC)c1=O :: 56

List Population Mitotic Cells (%) for every entry below, keeping the order given.
1. CCCCCC(O)/C=C/[C@H]1C(=O)CC(O)C1C/C=C\CCCC(=O)O (some centres undefined)
2. CN1CCN(c2cc(-c3ccccc3)nc(N)n2)CC1

55
63

###

I'd appreciate it if you could supply Total Cell Count values for the items below.
# System: U2OS
# assay comment: Multiplex assay against U2OS
# Assay type: toxicity, cell-based
# condition set: human, 24 h, 1 µM, compound concentration 1 uM, replicate 2
One number for each entry.

Check out these entries, answers already filled in.
CCCCC(=O)N(Cc1ccc(-c2ccccc2-c2nnn[nH]2)cc1)[C@H](C(=O)O)C(C)C :: 158
O=C(NCCN1CCC(n2c(=O)[nH]c3cc(Cl)ccc32)CC1)c1ccc(F)cc1 [HALOPEMIDE] :: 132

List Total Cell Count for every entry below, keeping the order given.
1. CC(C)c1noc(N2CCC(COc3ccc(-c4ccc(S(C)(=O)=O)cc4)nc3)CC2)n1 [GSK-1292263]
2. CCc1cc2cc(NS(=O)(=O)c3ccc(C#N)cc3)ccc2n(CC)c1=O

[145, 126]

List Total Cell Count for every entry below, keeping the order given.
1. CCCCC1=NC2(CCCC2)C(=O)N1Cc1ccc(-c2ccccc2-c2nnn[nH]2)cc1 [IRBESARTAN]
2. CCCOc1ccc2[nH]cc(C3=CCNCC3)c2n1.Cl

[142, 138]

List Total Cell Count for every entry below, keeping the order given.
1. Cl.NCCc1ccc(O)c(O)c1 [DOPAMINE HYDROCHLORIDE]
2. C[C@H](N)COC(=O)[C@@H](CCCCN)NC(=O)Cc1c(-c2ccc3ccccc3c2)[nH]c2c1ccc1ccccc12

[132, 170]

List Total Cell Count for every entry below, keeping the order given.
1. CCCCCC(O)/C=C/[C@H]1C(=O)CC(O)C1C/C=C\CCCC(=O)O (stereo partly drawn)
2. Cc1onc(-c2ccccc2Cl)c1C(=O)N(C)c1ccc(Cl)cc1
3. CC(/C=C1\SC(=S)N(CCCC(=O)Nc2ccc(C(=O)O)c(O)c2)C1=O)=C\c1ccccc1
4. CN1CCN(c2cc(-c3ccccc3)nc(N)n2)CC1

131
168
177
177

List Total Cell Count for every entry below, keeping the order given.
1. CC(C)COc1ccc(CNC(=O)N(Cc2ccc(F)cc2)C2CCN(C)CC2)cc1 [PIMAVANSERIN]
2. O=C(CCCc1ccccc1)Nc1nc2ccccc2c(=O)s1
3. CN(C)C(=O)Cn1cc(-c2ccc(-c3cncc4ccccc34)cc2)cn1
4. N#Cc1cc(F)cc(-c2nc(-c3ccc(F)cn3)no2)c1
5. N#Cc1c(Oc2cccc(OS(=O)(=O)CCCC(F)(F)F)c2)cccc1C(F)(F)F
6. Cc1cnc(-c2cc(N3CCN(C(=O)CCS(C)(=O)=O)CC3)ncc2Cl)c(C)c1

1: 163; 2: 141; 3: 127; 4: 126; 5: 130; 6: 136

List Total Cell Count for every entry below, keeping the order given.
1. Cc1c(CC(=O)O)c2cccnc2n1Cc1ccc(S(C)(=O)=O)cc1C(F)(F)F [FEVIPIPRANT]
2. Cc1sc2c(c1C)C(c1ccc(Cl)cc1)=N[C@@H](CC(=O)NCCCCCCCCNC(=O)COc1cccc3c1C(=O)N(C1CCC(=O)NC1=O)C3=O)c1nnc(C)n1-2 (stereo partly drawn)
3. COc1ccccc1N1CCN(C[C@@H](C(=O)NC(C)(C)C)c2ccccc2)CC1.Cl.Cl
4. CN[C@@H](C)C(=O)N[C@H](C(=O)N1CCC[C@H]1C(=O)Nc1snnc1-c1ccccc1)C1CCCCC1 [GDC-0152]
5. CC[C@@H](C)Nc1nc(C)nc2c(-c3ccc(OC)nc3C)c(C)nn12 [PEXACERFONT]

1: 145; 2: 174; 3: 129; 4: 144; 5: 172

List Total Cell Count for every entry below, keeping the order given.
1. NCCc1cn(S(=O)(=O)c2c(Cl)nc3sccn23)c2ccccc12.O=C(O)C(=O)O
2. Cc1cccc(NC(=O)CN2CCC(c3ccccn3)CC2)c1.Cl.Cl
3. COc1cccc2c1c(NS(=O)(=O)c1ccc(Cl)s1)nn2Cc1cccc(CNC(=O)C(C)(C)O)c1

1. 151
2. 135
3. 242

List Total Cell Count for every entry below, keeping the order given.
1. COC[C@@H](c1ccc(C(F)(F)F)cc1)N1CCN(C2(C)CCN(C(=O)c3c(C)ncnc3C)CC2)C[C@@H]1C.O=C(O)/C=C\C(=O)O [VICRIVIROC MALEATE]
2. CC(C)(C)c1cc(NC(=O)Nc2ccc(-c3cn4c(n3)sc3cc(OCCN5CCOCC5)ccc34)cc2)no1 [QUIZARTINIB]
3. CC(=O)Nc1cccc2c1c(Sc1ccc(Cl)cc1)c(C)n2CC(=O)O [AZD1981]
4. Br.CS(=O)(=O)Nc1c(O)ccc2c1CCCC2C1=NCCN1 (stereo not drawn)
5. O=C1[C@H](Cc2ccc(O)cc2)N2C(=O)CCN(C(=O)NCc3ccccc3)[C@H]2CN1Cc1cccc2ccccc12
6. Cl.N=C(N)NC(=O)Cc1c(Cl)cccc1Cl [GUANFACINE HYDROCHLORIDE]
7. Cc1noc(-c2ccc(-c3ccc(CC(=O)O)cc3)cc2)c1NC(=O)O[C@H](C)c1ccccc1Cl

1. 111
2. 134
3. 106
4. 185
5. 127
6. 160
7. 125
